- Tested System: Neurotensin receptor type 1 (Homo sapiens)
- Sequence (P30989 whole entry): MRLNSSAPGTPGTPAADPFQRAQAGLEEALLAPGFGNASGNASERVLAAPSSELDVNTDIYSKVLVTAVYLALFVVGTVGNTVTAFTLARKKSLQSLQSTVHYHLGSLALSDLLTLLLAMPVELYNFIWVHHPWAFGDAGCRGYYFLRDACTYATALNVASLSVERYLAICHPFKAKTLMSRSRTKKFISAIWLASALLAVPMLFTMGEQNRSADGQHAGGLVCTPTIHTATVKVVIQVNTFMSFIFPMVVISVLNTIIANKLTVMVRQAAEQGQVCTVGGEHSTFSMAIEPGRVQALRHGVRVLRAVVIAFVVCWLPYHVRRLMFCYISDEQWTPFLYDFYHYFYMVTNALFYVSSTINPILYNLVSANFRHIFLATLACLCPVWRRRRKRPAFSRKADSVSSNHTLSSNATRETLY
- Method Summary: Displacement of [125I]Tyr3-neurotensin from human NTS1 receptor expressed in CHOK1 cell membranes after 60 mins by gamma counting analysis
Value Kind: Ki (nM)

Smiles Str	Quantity Unit	Ki
CCOC(=O)[C@H](CC(C)C)NC(=O)[C@@H](NC(=O)[C@H](Cc1c[nH]c2ccccc12)NC(=O)[C@@H]1CCCN1C(=O)[C@H](CCCCN)NC(=O)[C@@H](N)CCCCN)C(C)(C)C	nM	159

[I] CC[C@H](C)[C@H](NC(=O)[C@@H]1Cc2ccc(O)c(c2)CC=CCCCCCCC(=O)N[C@@H](CCCCN)C(=O)N2CCC[C@H]2C(=O)N1)C(=O)N[C@@H](CC(C)C)C(=O)O
[II] CC[C@H](C)[C@H](NC(=O)[C@@H]1Cc2ccc(O)c(c2)CC=CCNCCCCCC(=O)N[C@@H](CCCCN)C(=O)N2CCC[C@H]2C(=O)N1)C(=O)N[C@@H](CC(C)C)C(=O)O
[in] Which of the two gives a bigger number for Ki: I or II ? Could you answer with the label of the item you picked?
[out] I

---

- Method Summary: Half life in rat plasma by UPLC-MS analysis
- Assay type: ADME, cell-free
Value Kind: half-life (min)

Here is how some compounds turned out for half-life.
Smiles Str	Quantity Unit	half-life
C=CCNCCCC[C@H](N)C(=O)N[C@@H](CCCCN)C(=O)N1CCC[C@H]1C(=O)N[C@@H](Cc1ccc(O)c(CC=C)c1)C(=O)N[C@H](C(=O)N[C@@H](CC(C)C)C(=O)O)[C@@H](C)CC	min	5
CC[C@H](C)[C@H](NC(=O)[C@@H]1Cc2ccc(O)c(c2)CC=CCCNCCCC[C@H](N)C(=O)N[C@@H](CCCCN)C(=O)N2CCC[C@H]2C(=O)N1)C(=O)N[C@@H](CC(C)C)C(=O)O	min	15
CC[C@H](C)[C@H](NC(=O)[C@@H]1Cc2ccc(O)c(c2)CC=CCCCNCCCC[C@H](N)C(=O)N[C@@H](CCCCN)C(=O)N2CCC[C@H]2C(=O)N1)C(=O)N[C@@H](CC(C)C)C(=O)O	min	18

[I] CC[C@H](C)[C@H](NC(=O)[C@@H]1Cc2ccc(O)c(c2)CC=CCNCCCCCC(=O)N[C@@H](CCCCN)C(=O)N2CCC[C@H]2C(=O)N1)C(=O)N[C@@H](CC(C)C)C(=O)O
[II] CC[C@H](C)[C@H](NC(=O)[C@@H]1Cc2ccc(O)c(c2)CC=CCNCC[C@H](N)C(=O)N[C@@H](CCCCN)C(=O)N2CCC[C@H]2C(=O)N1)C(=O)N[C@@H](CC(C)C)C(=O)O
[in] Which of the two gives a bigger number for half-life: I or II ? Could you answer with the label of the item you picked?
[out] I

---

- Method Summary: Half life in rat plasma by UPLC-MS analysis
- Type: ADME, cell-free
# key: entry, value: half-life
Please reply with the bare figure in h and do not write the unit itself.

Smiles Str	Quantity Unit	half-life
CC[C@H](C)[C@H](NC(=O)[C@@H]1Cc2ccc(O)c(c2)CC=CCCCCCC[C@](C)(N)C(=O)N[C@@H](CCCCN)C(=O)N2CCC[C@H]2C(=O)N1)C(=O)N[C@@H](CC(C)C)C(=O)O	h	24
CC[C@H](C)[C@H](NC(=O)[C@@H]1Cc2ccc(O)c(c2)CC=CCNCCCC[C@@H](N)C(=O)N[C@@H](CCCCN)C(=O)N2CCC[C@H]2C(=O)N1)C(=O)N[C@@H](CC(C)C)C(=O)O	h	24

[in] For `CC[C@H](C)[C@H](NC(=O)[C@@H]1Cc2ccc(O)c(c2)CC=CCN(S(=O)(=O)c2ccccc2[N+](=O)[O-])CCCC[C@H](N)C(=O)N[C@@H](CCCCN)C(=O)N2CCC[C@H]2C(=O)N1)C(=O)N[C@@H](CC(C)C)C(=O)O` , what is its reported half-life?
[out] 1.4
